Test system: DAF-12 nuclear receptor (Heterodera glycines), GAL4-LBD fusion
experimentDescription: H. glycines DAF-12 receptor agonists, confirmation, cell-based, luminescence, HEK293, GAL4-LBD fusion (AID 743050);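 note: 0% = DMSO low control and 100% = 2 mM sodium butyrate high control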
details: HEK293 GAL4-hgDAF12 luciferase reporter, agonist mode; at 6.8 µM; active compounds read high; percent of butyrate response
The other results are listed elsewhere or left out. The source made the active and inactive calls.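 Rule for the calls: active = mean activation over triplicate wells above the hit cutoff derived from the earlier primary screen (cut at about 11% in these data); inactive = the rest.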
outcomeMeasure: activation

Here's what some known entries look like.
O=C(c1cnn(-c2ccc(Cl)cc2)c1)c1ccccc1O: 12.9% (active)
Cc1ccc(C(=O)NNc2ncnc3ccccc23)cc1: 9.47% (inactive)

Exercise: Need activation of COc1ccc(/C=C2/CCCc3ccccc3C2=O)cc1 , thanks.
Solution: 18.7% (active)

###

testSystem: Nuclear receptor coactivator 1 (Homo sapiens)
experimentDescription: SRC1 coactivator transcriptional activity inhibitors, confirmation, cell-based, luminescence, quadruplicate (AID 588820);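 note: 0% = DMSO wells and 100% = gossypol 36 µM treated wells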
details: HEK293 GAL4-SRC1 luciferase reporter, at 3.6 µM, active compounds read high
outcomeMeasure: inhibition (%)
Answers are plain numbers, in %.

Working through the 2 compounds below one at a time, give inhibition for each.
1. COc1ccc(-c2cc(N3C(=O)Nc4ccccc4N3O)n[nH]2)c(OC)c1
2. O=C(c1ccccc1Sc1ccccc1[N+](=O)[O-])N1CCCCC1

Solution:
1: 25.8; 2: 10.1

Working through the 4 compounds below one at a time, give inhibition for each.
1. CN(C)C=Nc1ncc2c3ccccc3n(CCN(C)C)c2c1C#N
2. c1cn(-c2ncnc3sc4c(c23)CCCC4)cn1
3. c1ccc(CCc2nn3c(-c4ccncc4)nnc3s2)cc1
4. O=C1NC[C@H](c2ccccc2)OC(=O)[C@@H](Cc2ccc(F)cc2)C/C=C\C[C@H]1CC(=O)N(CCO)Cc1ccccc1

Solution:
48.9
11.4
57.3
-35

Working through the 5 compounds below one at a time, give inhibition for each.
1. CC1CCN(Cc2c(C(=O)N/N=C/c3ccccc3O)nnn2-c2nonc2N)CC1
2. Cc1cccn2c(=O)c3cc(C(=O)NCCN4CCOCC4)c(=N)n(Cc4cccnc4)c3nc12
3. CC(=O)/C(N=Nc1ccc2c(c1)OCCO2)=C(\C)O
4. O=C(NCc1ccccc1)C(c1ccccc1)N(Cc1cccs1)C(=O)c1cnccn1 (stereo unspecified)
5. CCOc1cc(/C=C2\COc3ccccc3C2=O)cc(Br)c1OCC(=O)N(C)C

Solution:
64.4
24.4
22.6
-71.6
22.3

###

testSystem: Insulin-degrading enzyme (Homo sapiens) (UniProt P14735)
Sequence (P14735 whole entry, looked up): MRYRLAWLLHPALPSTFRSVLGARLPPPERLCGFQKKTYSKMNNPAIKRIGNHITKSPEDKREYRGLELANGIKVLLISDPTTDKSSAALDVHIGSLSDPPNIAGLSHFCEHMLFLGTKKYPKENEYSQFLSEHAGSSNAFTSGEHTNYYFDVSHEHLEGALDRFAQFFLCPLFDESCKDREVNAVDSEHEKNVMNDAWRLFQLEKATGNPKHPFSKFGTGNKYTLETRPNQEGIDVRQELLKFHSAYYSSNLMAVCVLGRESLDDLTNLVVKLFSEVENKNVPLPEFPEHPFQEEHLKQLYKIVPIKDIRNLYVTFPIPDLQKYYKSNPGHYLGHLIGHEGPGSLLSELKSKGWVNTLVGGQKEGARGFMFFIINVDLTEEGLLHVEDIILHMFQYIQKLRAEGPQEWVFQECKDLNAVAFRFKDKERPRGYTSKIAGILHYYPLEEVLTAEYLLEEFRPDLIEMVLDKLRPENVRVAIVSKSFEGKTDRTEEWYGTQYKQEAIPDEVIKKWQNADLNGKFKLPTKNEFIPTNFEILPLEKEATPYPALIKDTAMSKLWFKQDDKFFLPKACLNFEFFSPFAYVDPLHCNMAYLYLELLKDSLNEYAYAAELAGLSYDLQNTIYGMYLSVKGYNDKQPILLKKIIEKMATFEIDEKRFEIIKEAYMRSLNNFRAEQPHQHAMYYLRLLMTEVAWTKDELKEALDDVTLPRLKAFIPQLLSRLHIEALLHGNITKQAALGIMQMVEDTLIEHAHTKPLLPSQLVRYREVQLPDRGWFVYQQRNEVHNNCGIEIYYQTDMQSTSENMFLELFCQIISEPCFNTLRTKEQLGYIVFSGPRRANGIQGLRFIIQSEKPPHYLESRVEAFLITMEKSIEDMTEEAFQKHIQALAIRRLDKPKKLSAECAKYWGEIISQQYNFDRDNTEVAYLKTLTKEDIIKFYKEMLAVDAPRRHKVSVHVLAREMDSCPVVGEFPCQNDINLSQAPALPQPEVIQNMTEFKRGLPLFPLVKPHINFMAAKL
experimentDescription: human IDE inhibitors in live cells, confirmation, fluorescence polarization, HEK cells, FAbetaB substrate (AID 435028);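 note: 0% = DMSO wells and 100% = 60 µM reference IDE inhibitor Ii1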
details: FAbetaB cleavage, at 5.59 µM, active compounds read high
The other results are listed elsewhere or left out.
outcomeMeasure: inhibition (%)
Give bare numbers, in %.

N#C/C(=C\c1ccc(N2CCOCC2)o1)C(=O)N1CCOCC1: 14.7
O=C(Nc1ccc(Cl)c(Cl)c1)N1CC=C(c2ccccc2)CC1: 4.7
COc1cc(/C=C2/SC(=S)N(Cc3ccccc3)C2=O)cc(OC)c1O: 142
CC(=O)c1cc(NC(=O)c2ccccc2)c(=O)oc1/C=C/N(C)C: 31
Cc1cc(Cl)ccc1OCCCC(=O)NCc1ccncc1: 7.81
N#C/C(=C/c1ccc(N2CCCCC2)o1)C(=O)NCCc1c[nH]c2ccccc12: 150

Working through the 2 compounds below one at a time, give inhibition for each.
1. O=C(Nc1ccc(Sc2ccc(Br)cc2)cc1)c1ccco1
2. Cc1cc(C)c(/C=C2\C(=O)Nc3ccccc32)[nH]1

Solution:
[14.3, 83.6]

Working through the 4 compounds below one at a time, give inhibition for each.
1. C=CCC1=C/C(=C\c2c(N)n3nc(CC(=O)N4CCOCC4)sc3nc2=O)C=C(OC)C1=O
2. COc1ccc(N=C(C)c2sc3ccccc3c2O)cc1
3. CC1(C)Cc2cccc(OCC(=O)N3CCN(c4ccc([N+](=O)[O-])cc4)CC3)c2O1
4. O=C(Oc1c(-c2ccco2)oc2ccccc2c1=O)c1cccnc1

Solution:
1: 25.9; 2: 56.1; 3: 4.72; 4: 93

Working through the 6 compounds below one at a time, give inhibition for each.
1. Cc1nn(C)cc1C(=O)c1ccccc1
2. Cc1cc2nc3c(=O)n(Cc4ccccc4)c(=O)[nH]c3nc2cc1N
3. CN1C(=O)/C(=C/C=C2\SCCN2C)OC1=S
4. CCCC(=O)Nc1c(O)c2ccccc2[nH]c1=O
5. CN(C)c1ccc(/C=C2\NC(=S)N(Cc3ccccc3)C2=O)cc1
6. CS(=O)(=O)N(Cc1ccccc1)c1ccc(C(=O)NN=C2CCCCCC2)cc1

Solution:
3.52
66.8
86.5
2.78
135
3.28
